# growth annotations
System: SW-620 colon
procedure-text: NCI-60 one-dose screen, 48 h (100 = growth as untreated, 0 = no growth, -100 = all killed)
test-parameters: 10 µM unless noted
Compounds without any hit were thinned out: in the full panel of roughly 83,000, 20% have a hit. Active and inactive are the calls of the source. The calls were made as follows: active = growth percent below 10; inactive = the rest.

[[record]]
compound = "CC1(C)N=C(N)N=C(N)N1c1ccc(CCC(=O)Nc2ccc(S(=O)(=O)F)cc2)cc1"
measured_metric = "growth"
recorded_value = "25.8% (inactive)"

[[record]]
compound = "Cc1c(C)c(N)c(C)c(C)c1N"
measured_metric = "growth"
recorded_value = "51.8% (inactive)"

[[record]]
compound = "O=C=Nc1ccc(Br)cc1"
measured_metric = "growth"
recorded_value = "103% (inactive)"

[[record]]
compound = "N#CCc1ccc(CC#N)cc1"
measured_metric = "growth"
recorded_value = "96.7% (inactive)"

[[record]]
compound = "N[C@@H](CCC(=O)CCl)C(=O)O"
measured_metric = "growth"
recorded_value = "97.9% [20 µM] (inactive)"

[[record]]
compound = "CC1(C)C=Cc2c(ccc3c2[N+]([O-])=C2C3=C[C@@]34NC(=O)[C@]5(CCCN5C3=O)C[C@@H]4C2(C)C)O1"
measured_metric = "growth"
recorded_value = "12.9% (inactive)"

[[record]]
compound = "CC(C)CCC1C(=O)NC(=O)NC1=O"
measured_metric = "growth"
recorded_value = "91.8% (inactive)"

[[record]]
compound = "CN(C)c1ccc(C=C2C(=O)NC(=O)NC2=O)cc1"
measured_metric = "growth"
recorded_value = "93.4% (inactive)"


stdin: Quickly give me recorded growth for `c1ccc2c(c1)sc1ccccc12`
stdout: 106% (inactive)

stdin: Quickly give me recorded growth for C[N+]12CCC34C5=CC(=O)C(=O)C=C5[N+]5(C)C(=O)CC6OCC=C(C1)C(CC32)C6C45 (configuration not stated)
stdout: 111% (inactive)

stdin: Quickly give me recorded growth for COCC1OC2OC3C(COC)OC(OC4C(COC)OC(OC5C(COC)OC(OC6C(COC)OC(OC7C(COC)OC(OC8C(COC)OC(OC1C(O)C2O)C(O)C8O)C(O)C7O)C(O)C6O)C(O)C5O)C(O)C4O)C(O)C3O (configuration not stated) (tested in a mixture with another compound)
stdout: 109% (inactive)

stdin: Quickly give me recorded growth for `O=C1C=C(N2CC2)c2ccccc2C1=O`
stdout: 68.4% (inactive)

stdin: Quickly give me recorded growth for `C=C[Se]CC(=O)/C=C/c1ccccc1`
stdout: 87.9% (inactive)

stdin: Quickly give me recorded growth for `CCOC(=O)P(=O)(OCC)OCC`
stdout: 106% (inactive)

stdin: Quickly give me recorded growth for `COc1ccc(N(CC(=O)NCCC[Te]c2ccccc2)C(=O)c2ccccc2)cc1`
stdout: 82% (inactive)

stdin: Quickly give me recorded growth for CC1=CC(=O)CCC12CCOC2=O (configuration not stated)
stdout: 98.6% (inactive)

stdin: Quickly give me recorded growth for `CC[C@H](C)[C@H](NC(=O)c1cnccn1)C(=O)N(C)[C@H](C[C@@H](OC(C)=O)c1nc(C(=O)N[C@@H](Cc2ccccc2)C[C@H](C)C(=O)OC)cs1)C(C)C`
stdout: 23.6% (inactive)

###

Test system: HCC-2998 colon
procedure-text: NCI-60 one-dose screen, 48 h (100 = growth as untreated, 0 = no growth, -100 = all killed)
test-parameters: 10 µM unless noted
This is part of a sample that, as a whole, favours compounds with a hit. Of some 83,000 tested, about 20% had one in any assay. Activity calls are given as the source filed them. How the source made its calls: active means growth percent below 10; inactive means the rest.
# growth annotations

[[record]]
compound = "CN1C2CCC1[C@@H](COC(=O)c1ccccc1)[C@@H](O)C2 (some centres not stated)"
measured_metric = "growth"
recorded_value = "105% (inactive)"


stdin: Quickly give me recorded growth for CCC1CCC(=O)O1 (configuration not stated)
stdout: 109% (inactive)

stdin: Quickly give me recorded growth for `C/C(=N/OC(=O)N(C)C)c1ccc(Cl)c(Cl)c1`
stdout: 109% (inactive)

stdin: Quickly give me recorded growth for `NC(=O)Oc1cc(OC(N)=O)cc(N(CCCl)CCCl)c1`
stdout: 103% (inactive)

###

Test system: A498 renal
procedure-text: NCI-60 one-dose screen, 48 h (100 = growth as untreated, 0 = no growth, -100 = all killed)
test-parameters: 10 µM unless noted
About 83,000 compounds went through this panel and 20% of them were active in at least one assay; those are over-represented in the sample as a whole.
# growth annotations
Write the value in % as a bare number.

Answered cases to consult:
[[record]]
compound = "O=S(=O)(c1ccc(O)cc1)c1ccccc1O"
value_units = "%"
recorded_value = 97

[[record]]
compound = "CC12CCC3C4CCC(=O)C=C4CCC3C1CC1CC(=O)OC12 (stereo not drawn)"
value_units = "%"
recorded_value = 98.9


Here's the next entry for you.
stdin: Report growth from A498 renal testing of `O=P(O)(Nc1ccccc1)Nc1ccccc1`
stdout: 89.3

###

Tested on: SNB-19 CNS
procedure-text: NCI-60 one-dose screen, 48 h (100 = growth as untreated, 0 = no growth, -100 = all killed)
test-parameters: 10 µM unless noted
Description: Growth inhibition of the SNB-19 human tumor cell line is measured as a screen for anti-cancer activity. Cells are grown in 96 well plates and exposed to the test compound for 48 hours. Compounds are tested at a single concentration, which is 10^-5 M for most compounds. The reported endpoint is percent growth (GI% or GIPRCNT), where numbers from 0 - 100% represent growth inhibition, and numbers from -100% - 0 represent cell death. For example, a value of 40 represents 60% growth inhibition. […]
This is part of a sample that, as a whole, favours compounds with a hit. Of some 83,000 tested, about 20% had one in any assay.
# growth annotations
Write the value in % as a bare number.

[[record]]
compound = "Cc1cc(N(CCCl)CCCl)ccc1C=Nc1ccc(-c2csc(-c3ccccc3)n2)cc1"
value_units = "%"
recorded_value = 79.4


stdin: Quickly give me recorded growth for `C[Se]/C=C1/C(=O)N(c2c(Cl)cccc2Cl)c2ccccc21`
stdout: 32.6

stdin: Quickly give me recorded growth for O=S(OO)c1cc(Cl)c(O)c(Cl)c1 (configuration not stated)
stdout: 104

stdin: Quickly give me recorded growth for `Cc1ccc(NC2=N[C@]34CC(=O)CC[C@]3(C)[C@H]3CC[C@]5(C)C(=O)CC[C@H]5[C@@H]3C[C@@H]4S2)c(C)c1`
stdout: 44

stdin: Quickly give me recorded growth for `O=c1[nH]c(=O)[nH]c(=O)[nH]1`
stdout: 98.1

stdin: Quickly give me recorded growth for `C=CC[PH+](c1ccccc1)c1ccccc1.C=CC[PH+](c1ccccc1)c1ccccc1.[Pt+2].[S-]c1ncccn1.[S-]c1ncccn1`
stdout: 74.9

stdin: Quickly give me recorded growth for `CC[C@H](C)[C@H](NC(=O)CN(C)C)C(=O)N(C)[C@H](C[C@@H](OC(C)=O)c1nc(C(=O)NC23CC(C(=O)OC)(C2)C3)cs1)C(C)C`
stdout: 41.5

###

Test system: MDA-MB-435 melanoma
procedure-text: NCI-60 one-dose screen, 48 h
test-parameters: 10 µM unless noted
The panel holds about 83,000 compounds, 20% with a hit somewhere; the sample as a whole holds those more often. Calls of active or inactive are those of the source. Rule for the calls: active = growth percent below 10; inactive = the rest.
Bench note: report the call from active, inactive

Record excerpt, results attached:
[[record]]
compound = "Cc1ccc(S(=O)(=O)n2cc([C@@]3(O)C[C@H](CSC#N)OC3=O)c3ccccc32)cc1"
class = "inactive"

[[record]]
compound = "CC1=CC(=O)CCC12CCOC2=O (centres undefined)"
class = "inactive"

[[record]]
compound = "C[N+]1(C)CCCC1c1cccnc1 (centres undefined)"
class = "inactive"

[[record]]
compound = "CC(Oc1ccc(-c2ccccc2)cc1)C(=O)O (centres undefined)"
class = "inactive"

[[record]]
compound = "O=P1(N(CCCl)CCCl)NCCCO1 (centres undefined)"
class = "inactive"

[[record]]
compound = "COC1C(O)CC(OC2CC(Oc3cc4cc5c(c(O)c4c(O)c3C)C(=O)[C@@H](OC3CC(OC4CC(OC6CC(C)(O)C(OC(C)=O)C(C)O6)C(O)C(C)O4)C(O)C(C)O3)[C@H]([C@H](OC)C(=O)[C@@H](O)[C@@H](C)O)C5)OC(C)C2OC(C)=O)OC1C (some centres undefined)"
class = "active"

[[record]]
compound = "O=C/C=C/c1ccco1"
class = "inactive"

[[record]]
compound = "C[N+]1(CC#CC[N+]2(C)CCCC2)CCCC1"
class = "inactive"


stdin: Give the logged outcome of this assay for the following compound: `Cn1cc(-c2csc(-c3cn(CCCCN4CCOCC4)c4ccc(F)cc34)n2)c2cccnc21`
stdout: inactive

###

Test system: A549/ATCC NSCLC
procedure-text: NCI-60 one-dose screen, 48 h (100 = growth as untreated, 0 = no growth, -100 = all killed)
test-parameters: 10 µM unless noted
The panel holds about 83,000 compounds, 20% with a hit somewhere; the sample as a whole holds those more often.
measured-metric: growth (%)
Write the value in % as a bare number.

[[record]]
compound = "CNC(=O)O/N=C(\\SC)C(=O)N(C)C"
tested_on = "A549/ATCC NSCLC"
value_units = "%"
recorded_value = 109


stdin: Quickly give me recorded growth for `ClCc1ccc(Cl)c(Cl)c1`
stdout: 107

stdin: Quickly give me recorded growth for COc1ccc(C(C#N)C(C)=O)cc1 (configuration not stated)
stdout: 101

stdin: Quickly give me recorded growth for CCN1C(=O)NC(=O)C(C)(N2C(=O)c3c(F)c(F)c(F)c(F)c3C2=O)C1=O (configuration not stated)
stdout: 43.1

stdin: Quickly give me recorded growth for `C[C@]12CC[C@H](O)C[C@@H]1CC[C@@H]1[C@@H]2CC[C@]2(C)OC(=O)CC[C@@H]12`
stdout: 72.8

stdin: Quickly give me recorded growth for `CC1=CC(=Nc2ccc(N(CCCl)CCCl)cc2)C=C(C)C1=O`
stdout: 38.4

stdin: Quickly give me recorded growth for `CC[C@H](C)[C@H](NC(=O)[C@H]1CCCCN1C)C(=O)N(C)[C@H](C[C@@H](OC(C)=O)c1cccc(C(=O)N[C@@H](Cc2ccccc2)C[C@H](C)C(=O)OC)n1)C(C)C`
stdout: 10.5
